Study the reported Ki values for Adenosine receptor A3 (Homo sapiens, UniProt P0DMS8) given below; they originate from different publications.
measured-quantity: Ki (µM)

(P) CCCn1c(=O)c2nc(-c3cnn(Cc4cc(C(F)(F)F)ccc4Cl)c3)[nH]c2n(CCC)c1=O
(Q) CCCn1c(=O)c2[nH]c(-c3ccc(S(=O)(=O)Oc4cccc([N+](=O)[O-])c4)cc3)nc2n(CCC)c1=O
(R) CCCn1c(=O)c2nc(-c3cnn(Cc4nc(-c5ccccc5)no4)c3)[nH]c2n(CCC)c1=O
(S) COc1ccc(C(=O)Nc2nc(-c3ccccc3)cc3ccccc23)cc1
(T) Nc1nc(NCCc2ccc(O)cc2)nc2sc(-c3ccco3)nc12
Number of compounds to sort: 5. Sort criterion: Ki, ascending. Your answer should be the labels, listed in the requested order.
S, R, T, P, Q
(S: 0.079 µM, R: 0.48 µM, T: 1.88 µM, P: 2.8 µM, Q: 4.3 µM)

(I) CC(=O)Nc1nc(SCCO)c(C#N)c(-c2ccco2)c1C#N
(II) CCOC(=O)Cc1ccc(NC(=O)Nc2nc3nn(CC4CCCCC4)cc3c3nc(-c4ccco4)nn23)cc1
(III) O=C(O)c1cnc(NC2CCCC2)n2nc(-c3ccco3)nc12
(IV) O=C(Nc1nc(-c2ccccc2)nc2nn(Cc3ccccc3)cc12)c1ccccc1
Reorder the items by Ki, least to greatest. Your answer should be the labels, listed in the requested order.
IV, II, I, III
(IV: 0.003 µM, II: 0.00695 µM, I: 0.211 µM, III: 17.7 µM)
